These measurements were taken from patent US20230212312A1.

Listed here: items and their measured koff.
# System Under Test: T1, human transferrin receptor (recombinant, SPR) (human, UniProt P02786 89-760)
# T1 construct: also called huTfR; human transferrin receptor-biotinylated
# T1 sequence (P02786 89-760 limits assumed): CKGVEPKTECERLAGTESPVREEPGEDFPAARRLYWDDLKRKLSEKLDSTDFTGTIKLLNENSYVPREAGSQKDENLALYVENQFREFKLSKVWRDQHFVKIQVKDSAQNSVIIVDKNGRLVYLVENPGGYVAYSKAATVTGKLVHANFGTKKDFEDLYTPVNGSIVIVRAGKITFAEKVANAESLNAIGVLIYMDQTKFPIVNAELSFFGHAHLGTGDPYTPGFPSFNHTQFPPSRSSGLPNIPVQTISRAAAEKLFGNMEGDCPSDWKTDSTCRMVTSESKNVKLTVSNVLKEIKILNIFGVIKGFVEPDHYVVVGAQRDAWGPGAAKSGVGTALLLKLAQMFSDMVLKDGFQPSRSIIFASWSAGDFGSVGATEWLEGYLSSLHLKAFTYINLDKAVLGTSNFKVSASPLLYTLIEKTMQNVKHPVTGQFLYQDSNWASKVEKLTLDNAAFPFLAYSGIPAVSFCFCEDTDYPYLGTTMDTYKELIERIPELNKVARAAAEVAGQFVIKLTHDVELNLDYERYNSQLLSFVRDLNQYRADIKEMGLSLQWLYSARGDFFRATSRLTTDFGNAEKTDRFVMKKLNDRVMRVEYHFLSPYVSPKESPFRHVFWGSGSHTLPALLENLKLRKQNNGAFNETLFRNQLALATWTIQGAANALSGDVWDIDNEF
# Assay Method Text: SPR B4000 25C (Example 31)
Just the number please, in s⁻¹, no unit attached.

Binder	Numeric Value
2/99 VH23-DASG/VK9-CYS (antibody, V domains shown) VH: QSMQESGPGLVKPSQTLSLTCTVSGFSLSSYAMSWIRQHPGKGLEWIGYIWSGGSTDYASWAKSRVTISKTSTTVSLKLSSVTAADTAVYYCARRYGTSYPDYGDASGFDPWGQGTLVTVSS VL: AIQLTQSPSSLSASVGDRVTITCRASQSISSYLAWYQQKPGKAPKLLIYRASTLASGVPSRFSGSGSGTDFTLTISSLQPEDFATYYCQQCYSSSNVDNTFGGGTKVEI	0.00233

--- query ---
Lookup: Name the recorded koff of the item 2/99 VH23-DAQG/VK9-GYS (antibody, V domains shown) VH: QSMQESGPGLVKPSQTLSLTCTVSGFSLSSYAMSWIRQHPGKGLEWIGYIWSGGSTDYASWAKSRVTISKTSTTVSLKLSSVTAADTAVYYCARRYGTSYPDYGDAQGFDPWGQGTLVTVSS VL: AIQLTQSPSSLSASVGDRVTITCRASQSISSYLAWYQQKPGKAPKLLIYRASTLASGVPSRFSGSGSGTDFTLTISSLQPEDFATYYCQQGYSSSNVDNTFGGGTKVEI in your answer.
Found: 0.00375
